Target: full length SGK1 (Homo sapiens, UniProt O00141)
Construct: 125 μM full length SGK1 (Life Technologies Part #PR7358A); purchased Life Technologies PR7358A
Sequence (O00141 1-431): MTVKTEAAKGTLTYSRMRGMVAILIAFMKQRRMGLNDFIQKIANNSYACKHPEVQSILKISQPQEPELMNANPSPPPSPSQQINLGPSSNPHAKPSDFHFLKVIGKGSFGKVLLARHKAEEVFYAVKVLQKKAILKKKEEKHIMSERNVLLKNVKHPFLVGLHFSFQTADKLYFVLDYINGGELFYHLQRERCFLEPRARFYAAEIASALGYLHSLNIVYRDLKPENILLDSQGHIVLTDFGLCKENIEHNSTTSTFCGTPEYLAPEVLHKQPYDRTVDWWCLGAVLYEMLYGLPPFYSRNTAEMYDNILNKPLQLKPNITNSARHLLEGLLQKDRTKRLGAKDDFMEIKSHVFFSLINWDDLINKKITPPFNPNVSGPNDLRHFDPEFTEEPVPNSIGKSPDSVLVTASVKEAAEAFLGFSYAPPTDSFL
Assay: SGK1 inhibition Assay A (Caliper LabChip electrophoretic separation of fluorescent peptide substrate and phosphorylated product)
Assay type: biochemical
Conditions: Assay A; 20 μM ATP, 40 min incubation; read-out: SGK1 IC50
IC50 class ranges: group 1 = under 8 nM, group 2 = from 8 nM up to 20 nM, group 3 = 20 nM and over

Assign a category based on measured IC50 for COC(=O)N1CC=C(c2cc(N3CCC[C@@H](NC(=O)c4sc(Cl)cc4OC4CCNC(C)(C)C4)C3)c3c(N)ncnn23)C1 (mixture of isomers) and give only the class name. group 1

Assign a category based on measured IC50 for "Cc1cc(-c2cc(N3CCC[C@@H](NC(=O)c4sc(Cl)cc4OCC(=O)N4CCCC4)C3)c3c(N)ncnn23)cnc1C#N" and give only the class name. group 2

Assign a category based on measured IC50 for "COC(=O)N1CC=C(c2cc(N3CCC[C@@H](NC(=O)c4sc(Cl)cc4OCCN4CC(F)(F)C4)C3)c3c(N)ncnn23)C1" and give only the class name. group 2

Assign a category based on measured IC50 for "CN(C)CCOc1cc(Cl)sc1C(=O)N[C@@H]1CCCN(c2cc(-c3ccnc(C#N)c3)n3ncnc(N)c23)C1" and give only the class name. group 1

Assign a category based on measured IC50 for "CC(=O)N1CC=C(c2cc(N3CCC[C@@H](NC(=O)c4csc(-c5cccnc5)n4)C3)c3c(N)ncnn23)C1" and give only the class name. group 3

Assign a category based on measured IC50 for "NC(=O)c1ccc(-c2cc(N3CCC[C@@H](NC(=O)c4sc(Cl)cc4OC4CN(CC(F)F)C4)C3)c3c(N)ncnn23)cc1F" and give only the class name. group 1

Assign a category based on measured IC50 for "CC(=O)N1CC=C(c2cc(N3CCC[C@@H](NC(=O)c4cccc(NC5CN(C)C5)n4)C3)c3c(N)ncnn23)C1" and give only the class name. group 3

Assign a category based on measured IC50 for "N#Cc1ccc(-c2cc(N3CCC[C@@H](NC(=O)c4ccc(C(F)F)s4)C3)c3c(N)ncnn23)cn1" and give only the class name. group 1

Assign a category based on measured IC50 for "CC(=O)N1CC=C(c2cc(N3CCC[C@@H](NC(=O)c4sc(Cl)cc4OCC4(N)CC4)C3)c3c(N)ncnn23)C1" and give only the class name. group 3

Assign a category based on measured IC50 for "CC(=O)c1ncc(-c2cc(N3CCC[C@@H](NC(=O)c4cccc(N5CCN(C)CC5)n4)C3)c3c(N)ncnn23)s1" and give only the class name. group 2

Assign a category based on measured IC50 for "CC(=O)N1CC=C(c2cc(N3CCC[C@@H](NC(=O)c4sc(Cl)cc4OCCNCC(F)F)C3)c3c(N)ncnn23)C1" and give only the class name. group 2

The origin of these recorded values is patent US20260250290A1.
